Assignment: determine reported log10 IC50 for the given compounds.
target: Neuraminidase (Influenza A virus, UniProt B4URF0); experiment: Inhibition of influenza A virus (A/Guangdong/376/2001(H1N1)) neuraminidase infected in chick embryo using MUNANA as substrate after 1 hr by spectrophotometric analysis
Sequence (B4URF0 whole entry): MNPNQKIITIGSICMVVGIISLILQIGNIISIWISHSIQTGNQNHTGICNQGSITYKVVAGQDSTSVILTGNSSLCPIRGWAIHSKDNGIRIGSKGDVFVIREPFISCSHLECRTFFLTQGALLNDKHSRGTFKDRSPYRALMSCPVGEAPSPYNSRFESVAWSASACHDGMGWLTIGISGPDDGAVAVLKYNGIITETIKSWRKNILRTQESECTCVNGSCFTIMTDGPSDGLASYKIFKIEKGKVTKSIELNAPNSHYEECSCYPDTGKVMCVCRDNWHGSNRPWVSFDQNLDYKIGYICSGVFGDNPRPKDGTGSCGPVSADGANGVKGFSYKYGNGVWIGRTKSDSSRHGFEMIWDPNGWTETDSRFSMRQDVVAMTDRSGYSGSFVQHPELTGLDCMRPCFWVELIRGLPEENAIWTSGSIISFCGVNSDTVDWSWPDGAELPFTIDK
Remember, log10 of IC50, in µM.

Query: Query (compound): CC(=O)N[C@H]1[C@H]([C@H](O)[C@H](O)CO)OC(C(=O)N2CCC(C(=O)O)CC2)=C[C@@H]1N ; field requested: log10 IC50
Reply: 0.80

Query: Query (compound): CC(=O)N[C@H]1[C@H]([C@H](O)[C@H](O)CO)OC(C(=O)NCc2cccc(F)c2)=C[C@@H]1NC(=N)N ; field requested: log10 IC50
Reply: -1.05

Query: Query (compound): CC(=O)N[C@H]1[C@H]([C@H](O)[C@H](O)CO)OC(C(=O)N[C@H](C(=O)O)C(C)C)=C[C@@H]1NC(=N)N ; field requested: log10 IC50
Reply: 0.33

Query: Query (compound): CC(=O)N[C@H]1[C@H]([C@H](O)[C@H](O)CO)OC(C(=O)NCCC(=O)O)=C[C@@H]1NC(=N)N ; field requested: log10 IC50
Reply: -0.44

Query: Query (compound): CC(=O)N[C@H]1[C@H]([C@H](O)[C@H](O)CO)OC(C(=O)NCc2ccc(C)cc2)=C[C@@H]1NC(=N)N ; field requested: log10 IC50
Reply: -0.59

Query: Query (compound): CC(=O)N[C@H]1[C@H]([C@H](O)[C@H](O)CO)OC(C(=O)N[C@@H](CC(C)C)C(=O)O)=C[C@@H]1NC(=N)N ; field requested: log10 IC50
Reply: 0.71

---

Assignment: determine reported half-life for the given molecules.
test: Terminal half life in Sprague-Dawley rat at 10 mg/kg, po; assay type: ADME, organism-based; design: dose 10 mg/kg, route oral; details: in vivo, read-out: beta t1/2 (converted)
Return type: number; implicit unit h.

Query: Query (molecule): CCOC(=O)C1=C[C@@H](OC(CC)CC)[C@H](NC(C)=O)[C@@H](N)C1.O=P(O)(O)O [OSELTAMIVIR PHOSPHATE] ; field requested: half-life
Reply: 10.6

Query: Query (molecule): CC(=O)N[C@H]1[C@H]([C@H](O)[C@H](O)CO)OC(C(=O)NCc2cccc(F)c2)=C[C@@H]1NC(=N)N ; field requested: half-life
Reply: 2.96

---

molecular target: Neuraminidase (Influenza A virus); test: Inhibition of influenza A virus (A/Guangdong/376/2001(H1N1)) neuraminidase infected in chick embryo using MUNANA as substrate after 1 hr by spectrophotometric analysis
Assignment: determine reported IC50 for the given compounds.
Return type: number; implicit unit µM.

Query: Lab request: please report IC50 under test system Neuraminidase (Influenza A virus) for CC(=O)N[C@H]1[C@H]([C@H](O)[C@H](O)CO)OC(C(=O)NCc2ccccc2F)=C[C@@H]1NC(=N)N
Reply: 0.24

Query: Lab request: please report IC50 under test system Neuraminidase (Influenza A virus) for CC(=O)N[C@H]1[C@H]([C@H](O)[C@H](O)CO)OC(C(=O)N[C@H](C(=O)O)C(C)C)=C[C@@H]1N
Reply: 2.25

Query: Lab request: please report IC50 under test system Neuraminidase (Influenza A virus) for CC(=O)N[C@H]1[C@H]([C@H](O)[C@H](O)CO)OC(C(=O)N[C@@H](CC(C)C)C(=O)O)=C[C@@H]1N
Reply: 159

Query: Lab request: please report IC50 under test system Neuraminidase (Influenza A virus) for CC(=O)N[C@H]1[C@H]([C@H](O)[C@H](O)CO)OC(C(=O)N2CCOCC2)=C[C@@H]1O
Reply: 98.9

Query: Lab request: please report IC50 under test system Neuraminidase (Influenza A virus) for CC(=O)N[C@H]1[C@H]([C@H](O)[C@H](O)CO)OC(C(=O)N2CCC[C@@H](C(=O)O)C2)=C[C@@H]1N
Reply: 103

Query: Lab request: please report IC50 under test system Neuraminidase (Influenza A virus) for CC(=O)N[C@H]1[C@H]([C@H](O)[C@H](O)CO)OC(C(=O)N[C@H](C(=O)O)c2ccccc2)=C[C@@H]1O
Reply: 60.5

Query: Lab request: please report IC50 under test system Neuraminidase (Influenza A virus) for CC(=O)N[C@H]1[C@H]([C@H](O)[C@H](O)CO)OC(C(=O)NCC(=O)O)=C[C@@H]1N
Reply: 13.9

---

target: Neuraminidase (Influenza A virus, UniProt B4URF0); assay: Inhibition of Influenza A virus […]/78(H1N1) neuraminidase
Endpoint: pIC50
// scale note: pIC50 = -log10(conc_M); give the bare number

Query: Query (molecule): CC(=O)N[C@H]1[C@H]([C@H](O)[C@H](O)CO)OC(C(=O)O)=C[C@@H]1O ; field requested: pIC50
Reply: 3.62

---

target: Neuraminidase (Influenza A virus, UniProt B4URF0); experiment: Inhibition of Influenza A virus (A/Sydney/5/1997(H3N2)) neuraminidase infected in chick embryo using MUNANA as substrate after 1 hr by spectrophotometric analysis
Each record is given yes if its reported IC50 is strictly below 20 µM. Records at or above 20 µM are given no.

Query: Dear colleague, could you confirm whether IC50 of CC(=O)N[C@H]1[C@H]([C@H](O)[C@H](O)CO)OC(C(=O)N[C@H](C(=O)O)C(C)C)=C[C@@H]1N falls below 20 µM? Thanks.
Reply: yes

Query: Dear colleague, could you confirm whether IC50 of CC(=O)N[C@H]1[C@H]([C@H](O)[C@H](O)CO)OC(C(=O)N[C@@H](CC(C)C)C(=O)O)=C[C@@H]1N falls below 20 µM? Thanks.
Reply: no

Query: Dear colleague, could you confirm whether IC50 of CC(=O)N[C@H]1[C@H]([C@H](O)[C@H](O)CO)OC(C(=O)NCC(=O)O)=C[C@@H]1N falls below 20 µM? Thanks.
Reply: yes

Query: Dear colleague, could you confirm whether IC50 of CC(=O)N[C@H]1[C@H]([C@H](O)[C@H](O)CO)OC(C(=O)NCc2ccccc2F)=C[C@@H]1NC(=N)N falls below 20 µM? Thanks.
Reply: yes

Query: Dear colleague, could you confirm whether IC50 of CC(=O)N[C@H]1[C@H]([C@H](O)[C@H](O)CO)OC(C(=O)N2CCOCC2)=C[C@@H]1O falls below 20 µM? Thanks.
Reply: no

Query: Dear colleague, could you confirm whether IC50 of CC(=O)N[C@H]1[C@H]([C@H](O)[C@H](O)CO)OC(C(=O)N[C@@H](CC(C)C)C(=O)O)=C[C@@H]1NC(=N)N falls below 20 µM? Thanks.
Reply: no

Query: Dear colleague, could you confirm whether IC50 of CC(=O)N[C@H]1[C@H]([C@H](O)[C@H](O)CO)OC(C(=O)N[C@@H](C)C(=O)O)=C[C@@H]1NC(=N)N falls below 20 µM? Thanks.
Reply: yes

Query: Dear colleague, could you confirm whether IC50 of CC(=O)N[C@H]1[C@H]([C@H](O)[C@H](O)CO)OC(C(=O)N[C@H](C(=O)O)C(C)C)=C[C@@H]1NC(=N)N falls below 20 µM? Thanks.
Reply: yes

Query: Dear colleague, could you confirm whether IC50 of COc1ccc(CNC(=O)C2=C[C@H](O)[C@@H](NC(C)=O)[C@H]([C@H](O)[C@H](O)CO)O2)cc1 falls below 20 µM? Thanks.
Reply: no

Query: Dear colleague, could you confirm whether IC50 of CC(=O)N[C@H]1[C@H]([C@H](O)[C@H](O)CO)OC(C(=O)N[C@@H](CC(C)C)C(=O)O)=C[C@@H]1O falls below 20 µM? Thanks.
Reply: no

Query: Dear colleague, could you confirm whether IC50 of CC(=O)N[C@H]1[C@H]([C@H](O)[C@H](O)CO)OC(C(=O)NCc2cccc(F)c2)=C[C@@H]1NC(=N)N falls below 20 µM? Thanks.
Reply: yes

Query: Dear colleague, could you confirm whether IC50 of CC(=O)N[C@H]1[C@H]([C@H](O)[C@H](O)CO)OC(C(=O)N[C@H](C(=O)O)C(C)C)=C[C@@H]1O falls below 20 µM? Thanks.
Reply: no

Query: Dear colleague, could you confirm whether IC50 of CC(=O)N[C@H]1[C@H]([C@H](O)[C@H](O)CO)OC(C(=O)NCc2ccc(C)cc2)=C[C@@H]1NC(=N)N falls below 20 µM? Thanks.
Reply: yes

Query: Dear colleague, could you confirm whether IC50 of CC(=O)N[C@H]1[C@H]([C@H](O)[C@H](O)CO)OC(C(=O)N[C@@H](CCC(=O)O)C(=O)O)=C[C@@H]1NC(=N)N falls below 20 µM? Thanks.
Reply: yes

Query: Dear colleague, could you confirm whether IC50 of CC(=O)N[C@H]1[C@H]([C@H](O)[C@H](O)CO)OC(C(=O)NCCC(=O)O)=C[C@@H]1NC(=N)N falls below 20 µM? Thanks.
Reply: yes

Query: Dear colleague, could you confirm whether IC50 of CC[C@H](C)[C@H](NC(=O)C1=C[C@H](O)[C@@H](NC(C)=O)[C@H]([C@H](O)[C@H](O)CO)O1)C(=O)O falls below 20 µM? Thanks.
Reply: no

Query: Dear colleague, could you confirm whether IC50 of CC(=O)N[C@H]1[C@H]([C@H](O)[C@H](O)CO)OC(C(=O)N2CCC[C@@H](C(=O)O)C2)=C[C@@H]1N falls below 20 µM? Thanks.
Reply: no

Query: Dear colleague, could you confirm whether IC50 of CC(=O)N[C@H]1[C@H]([C@H](O)[C@H](O)CO)OC(C(=O)N[C@H](C(=O)O)c2ccccc2)=C[C@@H]1O falls below 20 µM? Thanks.
Reply: no

Query: Dear colleague, could you confirm whether IC50 of CC(=O)N[C@H]1[C@H]([C@H](O)[C@H](O)CO)OC(C(=O)NCc2ccccc2)=C[C@@H]1O falls below 20 µM? Thanks.
Reply: no

Query: Dear colleague, could you confirm whether IC50 of CC(=O)N[C@H]1[C@H]([C@H](O)[C@H](O)CO)OC(C(=O)N2CCC(C(=O)O)CC2)=C[C@@H]1N falls below 20 µM? Thanks.
Reply: yes

These data points were gathered from ChEMBL document CHEMBL2311452.
